assay: FRG1 expression reporter modulators in myotubes – cell-based, C2C12 myotubes, firefly/Renilla luciferase, luminescence, FRG1 inhibition for FSHD, primary screen (AID 1084); details: FRG1 promoter luciferase, higher = more signal, called active from +8 up or from −8 down
The source made the active and inactive calls.
Measured property: z-score

IN: Recorded z-score for "CCOC(=O)C[C@H]1[C@H](OC(=O)c2ccc(C(=O)c3ccccc3)cc2)[C@@H](NC(=O)c2ccccc2)c2cc(OCCCO)ccc2N1C(=O)c1ccccc1" , please?
OUT: -1.48 (inactive)

IN: Recorded z-score for "CN(C)C(=O)[C@]1(Cc2ccccc2)N=C(c2ccc(OCCCO)cc2)O[C@@H]1c1ccccc1N=[N+]=[N-]" , please?
OUT: 0.336 (inactive)

IN: Recorded z-score for "COC(=O)c1c(CC[C@@H](CO)NC(=O)N[C@@H](Cc2ccccc2)Cn2cc(-c3ccccn3)nn2)oc(C(=O)N2CCOCC2)c1C(=O)OC" , please?
OUT: 0.183 (inactive)

Continuing:
IN: Recorded z-score for "CO[C@H]1O[C@H](CO)[C@@H](OC(=O)Nc2ccc(Oc3ccccc3)cc2)[C@H](OC(=O)Nc2ccc3c(c2)OCO3)[C@@H]1OC(=O)Nc1ccc2c(c1)OCO2" , please?
OUT: -0.0746 (inactive)

IN: Recorded z-score for "Cc1c(NC(=O)/C(C#N)=C/c2cccc([N+](=O)[O-])c2)c(=O)n(-c2ccccc2)n1C" , please?
OUT: 0.807 (inactive)

IN: Recorded z-score for "C=C[C@H](C)[C@@H](OC(=O)Nc1ccc(SC)cc1)c1ccc(O)c2ccccc12" , please?
OUT: 5.42 (inactive)

IN: Recorded z-score for "COCCOC(=O)N1C(=O)[C@@]2(c3cc(C#CCCO)ccc31)[C@H](c1ccc(OCCO)cc1)N1[C@H](c3ccccc3)[C@H](c3ccccc3)OC(=O)[C@H]1[C@@H]2C(N)=O" , please?
OUT: -0.485 (inactive)

IN: Recorded z-score for C[C@H]1C2[C@H](Cc3ccccc3)NC(=O)[C@]23C(=O)NCC(=O)N2CCC[C@H]2C(=O)NC/C=C/CCC/C=C/C3[C@@H]2O[C@]12C (some centres undefined) , please?
OUT: -0.111 (inactive)

IN: Recorded z-score for "Cc1ccc([C@H]2C(C(=O)O)=CCN2S(=O)(=O)c2ccc(C)cc2)cc1" , please?
OUT: -0.186 (inactive)

###

Collected composite z-score values appear next to each entry.
system: Lefty1; assay: Lefty1 protein binding to printed compounds – biochemical, small-molecule microarray, 635/667 nm fluorescence, primary screen (AID 1139); details: fluorescence 635/667, higher = more signal
Just the number.

IN: Recorded composite z-score for "C[N+](C)(C)CCCCCCNC(=O)[C@H]1C[C@H]2C(=O)N[C@@H](Cc3ccccc3)C(=O)N2[C@H]1c1cccc(OCCO)c1" , please?
OUT: 1.4

IN: Recorded composite z-score for "C=CCN1Cc2ccccc2[C@@H]2OC(c3ccc(OCCCO)cc3)=N[C@]2(CCS(=O)(=O)c2ccccc2)C1=O" , please?
OUT: 0.602

IN: Recorded composite z-score for "COCCOC(=O)N1C(=O)[C@@]2(c3ccccc31)[C@H](C(=O)N1CCc3cc(OC)c(OC)cc3C1)[C@H]1C(=O)O[C@H](c3ccccc3)[C@H](c3ccccc3)N1[C@@H]2c1ccc(O)cc1" , please?
OUT: 0.788

Continuing:
IN: Recorded composite z-score for "CC(C)[Si](C#CCCCC#N)(Oc1ccccc1Br)C(C)C" , please?
OUT: 0.55

IN: Recorded composite z-score for "O=C1O[C@H](c2ccccc2)[C@H](c2ccccc2)N2[C@H]1[C@@H](C(=O)NC[C@H](O)c1ccccc1)[C@]1(C(=O)Nc3ccc(C#CC4=CCCCC4)cc31)[C@H]2c1ccccc1OCCO" , please?
OUT: 0.632

IN: Recorded composite z-score for "O=C(NCc1ccccc1)[C@@H]1c2ccccc2C(=O)N(C2Cc3ccccc3C2)[C@H]1c1ccc(CO)cc1" , please?
OUT: 0.459

IN: Recorded composite z-score for "CN(C)C(=O)[C@]1(Cc2ccccc2)N=C(c2ccc(OCCCO)cc2)O[C@@H]1c1ccccc1N=[N+]=[N-]" , please?
OUT: 0.244

// data source = PubChem BioAssay
